Entry source: patent US20240366770A1

tested on: HEK-293 cells; test: HEK-293 cytotoxicity detection (CellTiter-Glo); type: cell-based; conditions: Homo sapiens, HEK293, 72 h, read-out: HEK293 (nM)
OBSERVATION_TYPE: IC50

Reported IC50 for Cc1cc(-c2ncnc3[nH]c4cc(N5CCN(CCc6ccc7c(c6)C6(CC6)C(=O)N7C6CCC(=O)NC6=O)CC5)ccc4c23)ccc1[C@@H](C)NC(=O)c1nc(C2(C)CC2)no1 (stereo partly shown) [Example 123] was > 10000 nM

----------
molecular target: BTK (Homo sapiens, UniProt Q06187); construct: High control=Cell group with added DMSO and without compound, indicating microplate readings without BTK degradation; endogenous in cells; host or cells: TMD-8; experiment: BTK degradation in TMD-8 cells (HTRF assay); type: cell-based; conditions: 6 h treatment, IC50 (DC50) of BTK degradation
Sequence (Q06187 whole entry): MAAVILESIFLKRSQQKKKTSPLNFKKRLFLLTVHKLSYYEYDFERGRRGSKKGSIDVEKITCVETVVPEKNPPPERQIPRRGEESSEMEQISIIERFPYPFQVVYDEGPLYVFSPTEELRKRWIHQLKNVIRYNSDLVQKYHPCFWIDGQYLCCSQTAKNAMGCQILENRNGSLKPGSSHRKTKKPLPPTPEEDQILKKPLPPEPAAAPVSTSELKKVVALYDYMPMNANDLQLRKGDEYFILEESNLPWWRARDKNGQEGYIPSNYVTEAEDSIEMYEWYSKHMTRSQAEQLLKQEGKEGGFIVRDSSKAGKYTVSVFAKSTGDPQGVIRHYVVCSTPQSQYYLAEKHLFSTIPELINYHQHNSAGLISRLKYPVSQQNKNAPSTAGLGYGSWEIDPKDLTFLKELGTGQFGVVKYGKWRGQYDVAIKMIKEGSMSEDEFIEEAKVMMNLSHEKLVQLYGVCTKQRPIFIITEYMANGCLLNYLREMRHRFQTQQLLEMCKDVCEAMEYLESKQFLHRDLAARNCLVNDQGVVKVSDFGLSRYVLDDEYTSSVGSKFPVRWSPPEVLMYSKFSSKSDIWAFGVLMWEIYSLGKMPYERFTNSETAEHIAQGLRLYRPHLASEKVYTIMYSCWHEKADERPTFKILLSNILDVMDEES
OBSERVATION_TYPE: DC50

Measured on BTK (Homo sapiens, UniProt Q06187), Cc1c([C@@H](C)NC(=O)c2noc(C(C)(C)C)n2)ccc(-c2ncnc3[nH]c4cc(N5CCN(CCc6cccc7c6n(C)c(=O)n7C6CCC(=O)NC6=O)CC5)ccc4c23)c1F (some centres unmarked) has a documented DC50 of 3.17 nM

Measured on BTK (Homo sapiens, UniProt Q06187), Cc1cc(-c2ncnc3[nH]c4cc(N5CCC6(CC5)CCN(C5CC(c7ccc(N[C@H]8CCC(=O)NC8=O)cc7)C5)CC6)ccc4c23)ccc1[C@@H](C)NC(=O)c1nc(C(C)(C)C)no1 (some centres unmarked) has a documented DC50 of 2.64 nM

Measured on BTK (Homo sapiens, UniProt Q06187), Cc1c([C@@H](C)NC(=O)c2noc(C(C)(C)C)n2)ccc(-c2ncnc3[nH]c4cc(N5CCN(C6CCN(Cc7ccc8c(c7)n(C7CCC(=O)NC7=O)c(=O)n8C)CC6)CC5)ccc4c23)c1F (some centres unmarked) has a documented DC50 of > 2000 nM

Measured on BTK (Homo sapiens, UniProt Q06187), Cc1cc(-c2ncnc3[nH]c4cc(N5CCN(CCc6ccc(N7CCC(=O)NC7=O)cn6)CC5)ccc4c23)ccc1[C@@H](C)NC(=O)c1nc(C(C)(C)C)no1 has a documented DC50 of 0.564 nM

Measured on BTK (Homo sapiens, UniProt Q06187), Cc1cc(-c2ncnc3[nH]c4cc(N5CCC6(CC5)CCN(C5CC(c7ccc(N[C@@H]8CCC(=O)NC8=O)cc7)C5)CC6)ccc4c23)ccc1[C@@H](C)NC(=O)c1nc(C(C)(C)C)no1 (some centres unmarked) has a documented DC50 of 2.99 nM

Measured on BTK (Homo sapiens, UniProt Q06187), COc1cc2c(cc1N1CCN(CC3CCN(c4ccc(N5CCC(=O)NC5=O)cc4)CC3)CC1)[nH]c1ncnc(-c3ccc([C@@H](C)NC(=O)c4nc(C5(C)CC5)no4)c(C)c3F)c12 has a documented DC50 of 2.26 nM

Measured on BTK (Homo sapiens, UniProt Q06187), Cc1cc(-c2ncnc3[nH]c4cc(N5CCC6(CCN(CC7CCN(c8ccc(N9CCC(=O)NC9=O)cc8)CC7)C6)CC5)ccc4c23)ccc1[C@@H](C)NC(=O)c1nc(C(C)(C)C)no1 has a documented DC50 of 1.02 nM

Measured on BTK (Homo sapiens, UniProt Q06187), Cc1cc(-c2ncnc3[nH]c4c(c23)CCC(N2CCN(CC3CCN(c5ccc(N6CCC(=O)NC6=O)cc5)CC3)CC2)C4)ccc1[C@@H](C)NC(=O)c1nc(C(C)(C)C)no1 (some centres unmarked) has a documented DC50 of > 2000 nM

Measured on BTK (Homo sapiens, UniProt Q06187), COc1cc2c(cc1N1CCN(CC3CCN(c4ccc(N5CCC(=O)NC5=O)cc4)CC3)CC1)[nH]c1ncnc(-c3ccc([C@@H](C)NC(=O)c4noc(C(C)(C)C)n4)c(C)c3F)c12 has a documented DC50 of 1.87 nM

Measured on BTK (Homo sapiens, UniProt Q06187), COc1cc2c(cc1N1CCN(C3CC(c4ccc([C@H]5CCC(=O)NC5=O)cc4)C3)CC1)[nH]c1ncnc(-c3ccc([C@@H](C)NC(=O)c4nc(C(C)(C)C)no4)c(C)c3F)c12 (some centres unmarked) has a documented DC50 of 10.3 nM

Measured on BTK (Homo sapiens, UniProt Q06187), Cc1c([C@@H](C)NC(=O)c2noc(C(C)(C)C)n2)ccc(-c2ncnc3[nH]c4cc(N5CCN(CC6CCN(c7ccc(N8CCC(=O)NC8=O)cc7)CC6)CC5)ccc4c23)c1F has a documented DC50 of 0.299 nM

Measured on BTK (Homo sapiens, UniProt Q06187), COc1cc2c(cc1N1CCN(C3CC(c4ccc([C@H]5CCC(=O)NC5=O)cc4)C3)CC1)[nH]c1ncnc(-c3ccc([C@@H](C)NC(=O)c4noc(C(C)(C)C)n4)c(C)c3F)c12 (some centres unmarked) has a documented DC50 of 4.97 nM

Measured on BTK (Homo sapiens, UniProt Q06187), Cc1cc(-c2ncnc3[nH]c4cc(CN5CCN(CC6CCN(c7ccc(N8CCC(=O)NC8=O)cc7)CC6)CC5)ccc4c23)ccc1[C@@H](C)NC(=O)c1nc(C(C)(C)C)no1 has a documented DC50 of 1.16 nM

Measured on BTK (Homo sapiens, UniProt Q06187), COc1cc2c(cc1N1CCN(Cc3ccc(SC4CCC(=O)NC4=O)cc3)CC1)[nH]c1ncnc(-c3ccc([C@@H](C)NC(=O)c4nc(C(C)(C)C)no4)c(C)c3)c12 (some centres unmarked) has a documented DC50 of > 2000 nM

Measured on BTK (Homo sapiens, UniProt Q06187), Cc1c([C@@H](C)NC(=O)c2noc(C(C)(C)C)n2)ccc(-c2ncnc3[nH]c4cc(N5CCN(C6CN(c7ccc(N8CCC(=O)NC8=O)cc7)C6)CC5)ccc4c23)c1F has a documented DC50 of 6.82 nM

Measured on BTK (Homo sapiens, UniProt Q06187), COc1cc2c(cc1N1CCN(C3CCN(c4cccc(C5CCC(=O)NC5=O)c4)C3)CC1)[nH]c1ncnc(-c3ccc([C@@H](C)NC(=O)c4nc(C(C)(C)C)no4)c(C)c3F)c12 (some centres unmarked) has a documented DC50 of 9.6 nM

Measured on BTK (Homo sapiens, UniProt Q06187), Cc1c([C@@H](C)NC(=O)c2noc(C(C)(C)C)n2)ccc(-c2ncnc3[nH]c4cc(N5CCN(Cc6ccc7c(c6)C6(CC6)C(=O)N7C6CCC(=O)NC6=O)CC5)ccc4c23)c1F (some centres unmarked) has a documented DC50 of 15.9 nM

Measured on BTK (Homo sapiens, UniProt Q06187), COc1cc2c(cc1N1CCN([C@H]3C[C@@H](c4ccc(N[C@H]5CCC(=O)NC5=O)cc4)C3)CC1)[nH]c1ncnc(-c3cc(C)c([C@@H](C)NC(=O)c4nc(C5(C)CC5)no4)cc3F)c12 has a documented DC50 of 0.49 nM

Measured on BTK (Homo sapiens, UniProt Q06187), Cc1cc(-c2ncnc3[nH]c4cc(N5CCN(CCc6ccc(N7CCC(=O)NC7=O)c(C)c6)CC5)ccc4c23)ccc1[C@@H](C)NC(=O)c1nc(C(C)(C)C)no1 has a documented DC50 of 0.341 nM

Measured on BTK (Homo sapiens, UniProt Q06187), Cc1c([C@@H](C)NC(=O)c2noc(C(C)(C)C)n2)ccc(-c2ncnc3[nH]c4cc(N5CCN(C6CCN(c7ccc(C8CCC(=O)NC8=O)cc7)CC6)CC5)ccc4c23)c1F (some centres unmarked) has a documented DC50 of 3.16 nM
